Biological target: COL4A3BP; also: reference of the scale not given here
Assay: pooled miR-30 sensor sort-seq; sequence = guide strand
Conditions: shRNA
OUTCOME MEASURE: sensor-assay potency score (higher = more potent)
// keep it numeric: no unit symbol after the value

Here's what some known entries look like.
# SEQUENCE INPUT, MEASUREMENT
records = [
    ("TTCTCTTCTGTATACCTTCATT", -1.23),
    ("TCGACATTCATCAAAATCGTGA", -0.678),
    ("TAACTTTTCTTTATTGCCGTTG", -0.347),
]

Here's the next entry for you.
Input line: Provide one value: measured sensor-assay potency score (higher = more potent) of TTCTTCTACAACCAACTGCCAA
Output line: -0.938
